# Measured on: E3 ubiquitin-protein ligase UHRF1 (Homo sapiens) (UniProt Q96T88)
# Sequence (Q96T88 whole entry, looked up, the tested form may be a part): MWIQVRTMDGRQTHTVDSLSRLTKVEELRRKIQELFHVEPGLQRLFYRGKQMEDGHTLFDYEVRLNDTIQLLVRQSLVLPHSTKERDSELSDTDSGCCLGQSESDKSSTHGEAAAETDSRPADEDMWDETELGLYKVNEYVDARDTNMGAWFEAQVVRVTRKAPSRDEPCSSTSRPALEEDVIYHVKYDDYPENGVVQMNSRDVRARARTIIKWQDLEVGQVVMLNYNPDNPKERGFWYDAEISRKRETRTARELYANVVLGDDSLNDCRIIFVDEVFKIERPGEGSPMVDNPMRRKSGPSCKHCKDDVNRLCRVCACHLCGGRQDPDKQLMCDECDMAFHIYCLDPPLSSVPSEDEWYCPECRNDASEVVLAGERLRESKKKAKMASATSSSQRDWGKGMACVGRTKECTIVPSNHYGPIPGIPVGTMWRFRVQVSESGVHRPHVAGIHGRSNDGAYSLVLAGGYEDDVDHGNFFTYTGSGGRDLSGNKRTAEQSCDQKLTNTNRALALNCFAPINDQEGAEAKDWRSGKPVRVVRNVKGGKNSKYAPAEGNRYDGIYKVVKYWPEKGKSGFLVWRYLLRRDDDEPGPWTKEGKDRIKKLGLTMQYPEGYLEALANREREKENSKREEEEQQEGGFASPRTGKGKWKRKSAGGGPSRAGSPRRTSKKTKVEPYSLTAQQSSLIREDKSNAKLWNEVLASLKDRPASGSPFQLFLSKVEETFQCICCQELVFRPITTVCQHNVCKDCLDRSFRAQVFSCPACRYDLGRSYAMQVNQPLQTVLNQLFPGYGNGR
# Measurement notes: blockers of UHRF1 binding to methyl-oligo – biochemical, TR-FRET, human UHRF1, single concentration, counter-screen for MBD2 inhibitor project, primary screen (AID 687016);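 note: UHRF1 SRA domain binding a hemimethylated CpG hairpin DNA probe; 0% = median of test compound wells and 100% = reference inhibitor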
# Condition set: UHRF1 binding to methylated oligo, at 4.4 µM
In all, about 370,000 compounds went through this assay and about 2,800 (0.76%) were called active. Cut-off read from the data, not from the text of the source: active = inhibition above about 21%; inactive = the rest. This excerpt belongs to a sample that is enriched for actives.
Pick from yes (1) = active, no (0) = inactive when you respond.

Below are worked cases with known answers.
{"columns": ["Molecule", "Cat"],
 "data": [
  ["Cc1ccc(-c2nn(-c3ccc(F)cc3)cc2C(=O)NCC(c2cccs2)N2CCOCC2)cc1 (stereo not given)", "no (0)"],
  ["Cc1cc(C)cc(NC(=O)N2CCC(N(C)CCC(C)C)CC2)c1", "no (0)"],
  ["Cc1cc(C)c(OCCN2CC(C)OC(C)C2)c(Br)c1 (stereo not given)", "yes (1)"],
  ["Nn1c(SCC(=O)Nc2cccc3ccccc23)nnc1-c1cc(-c2ccc(F)cc2)n[nH]1", "no (0)"]
]}

Next molecule, please.
Problem: Call for entry "N#Cc1ccccc1OC[C@@H](O)CN1CCC(C(O)(c2ccccc2)c2ccccc2)CC1" :
Solution: no (0)

====

# Measured on: E3 ubiquitin-protein ligase UHRF1 (Homo sapiens)
# Measurement notes: blockers of UHRF1 binding to methyl-oligo – biochemical, TR-FRET, human UHRF1, single concentration, counter-screen for MBD2 inhibitor project, primary screen (AID 687016)
# Condition set: UHRF1 binding to methylated oligo, at 4.4 µM, hits give high values
Screen size: about 370,000 compounds; about 2,800 (0.76%) were called active. The list comes from a sample in which actives are over-represented; it also holds close analogues and randomly drawn compounds.
Entries and their inhibition
Form entry: value (%) — number only.

Here is how some compounds turned out for inhibition.
{"columns": ["Compound", "inhibition, %"],
 "data": [
  ["CCCCC(=O)Nc1ccc(C(=O)NCCCn2ccnc2)cc1", -2.85],
  ["Fc1cccc(Cc2c(-c3ccc(Cl)cc3)nc3ccc(Cl)cn23)c1", 26.5],
  ["O=C(c1ccc(C(F)(F)F)cc1)N1CCC(=O)N([C@H](COCc2ccccc2)Cc2ccccc2)CC1", -0.62],
  ["CC(C)CC(COCc1ccc(Cl)cc1)N1CCN(C(=O)c2ccc(C(F)(F)F)cc2)CCC1=O (stereo not given)", 10.1],
  ["CCOc1ccc(N(CC(=O)Nc2c(C)n(C)n(-c3ccccc3)c2=O)S(=O)(=O)c2ccc(Cl)s2)cc1", -0.95]
]}

GET /values?item= "Cc1cc(NS(=O)(=O)c2ccc(NC(=O)CSc3nnc(-c4ccc(C(C)(C)C)cc4)n3Cc3ccco3)cc2)nc(C)n1" &system= E3 ubiquitin-protein ligase UHRF1 (Homo sapiens) returns inhibition: -1.86

// inhibition (E3 ubiquitin-protein ligase UHRF1 (Homo sapiens)) for O=C(NC1CCCC1)C1CSCCS(=O)(=O)N1Cc1ccccc1 (stereo not given) = -0.6

Result for O=C(CCCCCN1C(=O)C2C3C=CC(C3)C2C1=O)Nc1ccccc1 (stereo not given) , tested on E3 ubiquitin-protein ligase UHRF1 (Homo sapiens), inhibition: -1.94

Response field inhibition (E3 ubiquitin-protein ligase UHRF1 (Homo sapiens)) for item "C[C@@H]1ON(C)[C@H]2C[C@H]3c4[nH]c5cccc(-c6ccc7c(c6)OCO7)c5c4CCN3C[C@@H]12" : 4.06

Entry "COc1ccc(N2CCN(CCNS(=O)(=O)c3ccc(Cl)s3)CC2)cc1" , tested on E3 ubiquitin-protein ligase UHRF1 (Homo sapiens), has a reported inhibition of -0.57

Tested system E3 ubiquitin-protein ligase UHRF1 (Homo sapiens); inhibition recorded for "COc1ccc(COC[C@H](CC(C)C)N2CCN(C(=O)c3cccc(C(F)(F)F)c3)CCC2=O)cc1" was 21.1

Let me check: "O=C(Nc1cccc(F)c1)c1cc(-c2ccco2)nc2ccccc12" , system E3 ubiquitin-protein ligase UHRF1 (Homo sapiens), measured inhibition is 23

Form field, inhibition with E3 ubiquitin-protein ligase UHRF1 (Homo sapiens), item "Cc1cc(C(=O)Nc2ccc(C)c(S(=O)(=O)N3CCOCC3)c2)c2ccccc2n1" : 6.42

Log: E3 ubiquitin-protein ligase UHRF1 (Homo sapiens), compound "COc1ccccc1C(=O)CSc1nnc(-c2ccccn2)n1-c1ccccc1" , inhibition = 0.85

====

# Measured on: E3 ubiquitin-protein ligase UHRF1 (Homo sapiens) (UniProt Q96T88)
# Measurement notes: blockers of UHRF1 binding to methyl-oligo – biochemical, TR-FRET, human UHRF1, single concentration, counter-screen for MBD2 inhibitor project, primary screen (AID 687016);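 note: UHRF1 SRA domain binding a hemimethylated CpG hairpin DNA probe; 0% = median of test compound wells and 100% = reference inhibitor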
# Condition set: UHRF1 binding to methylated oligo, at 4.4 µM
The campaign covered roughly 370,000 compounds. About 2,800 (0.76%) were called active. No stated cut-off is given here; in the data, active means inhibition above about 21%; inactive means the rest. What follows is part of a selection rich in actives, with near analogues and random picks from the rest.
Would you mind answering with one of these outcomes? active, inactive

Would you please look over these solved cases?
{"columns": ["Molecule", "Cat"],
 "data": [
  ["C=CCN1C(=O)[C@@H](CC(=O)N2CCN(C(=O)OCC)CC2)[C@]2(C(=O)OCC)CCCCC/C=C/12", "inactive"],
  ["COc1ccc(-n2c(SCC(=O)Nc3ccc4cn[nH]c4c3)nnc2-c2cccnc2)cc1", "inactive"],
  ["CCC(NC(=O)C1C2C=CC3(CN(Cc4ccccc4)C(=O)C13)O2)c1ccccc1 (centres undefined)", "inactive"],
  ["C[C@H]1Cn2cnc(C(=O)N[C@H](C)c3ccccc3)c2C(=O)N1", "inactive"],
  ["CC1CCN(C(=O)c2ncn3c2C(=O)N[C@@H](C)C3)CC1", "active"],
  ["O=C(CNS(=O)(=O)c1ccccc1F)N1CCN(c2ccccn2)CC1", "inactive"],
  ["COC(=O)CC1CCc2cc(C)cc(C(CC(C)C)NC(=O)[C@H](CC(C)C)NC(=O)OCc3ccccc3)c2O1 (some centres undefined)", "inactive"],
  ["O=C(/C=C/[C@H]1O[C@@H](n2cnc3c(NC(=O)c4ccccc4)ncnc32)[C@H](O)[C@@H]1O)NCc1ccccc1", "active"]
]}

Problem: How did this test come out for COc1ccc(C(=O)OCCN(C)C2CN(Cc3cn(Cc4cccc(C)c4)nn3)S(=O)(=O)C2)cc1OC (centres undefined) ?
Solution: inactive

Problem: Record request — test call for CCC(C)C(CO)NC(=O)/C=C/[C@H]1O[C@@H](n2cnc3c(NC(=O)c4ccccc4)ncnc32)[C@H](O)[C@@H]1O (some centres undefined)
Solution: inactive

Problem: # lookup: test call for "CCN(CC)Cc1nc2sc(C)c(C)c2c(=O)[nH]1"
Solution: inactive

Problem: Tell me the recorded outcome of this test for "Cc1ccc(Cc2cnc(N)s2)o1" .
Solution: active

Problem: Dear all, I need the recorded test outcome for "COc1cccc(CN(C)C(=O)CC[C@H]2O[C@@H](n3cnc4c(NC(=O)c5ccccc5)ncnc43)[C@H](O)[C@@H]2O)c1" , thank you.
Solution: inactive

Problem: Hi team, can someone confirm the assay call for "C[C@@H]1Cn2cnc(C(=O)Nc3ccc(CNC(=O)OC(C)(C)C)cc3)c2C(=O)N1" ?
Solution: inactive

====

# Measured on: E3 ubiquitin-protein ligase UHRF1 (Homo sapiens) (UniProt Q96T88)
# Measurement notes: blockers of UHRF1 binding to methyl-oligo – biochemical, TR-FRET, human UHRF1, single concentration, counter-screen for MBD2 inhibitor project, primary screen (AID 687016);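 note: UHRF1 SRA domain binding a hemimethylated CpG hairpin DNA probe; 0% = median of test compound wells and 100% = reference inhibitor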
# Condition set: UHRF1 binding to methylated oligo, at 4.4 µM
Out of some 370,000 compounds screened, about 2,800 (0.76%) were called active. Cut-off read from the data, not from the text of the source: active = inhibition above about 21%; inactive = the rest. The full list was thinned out, with actives kept by preference.
Your answer must be one of the following: t = active, f = inactive

{"columns": ["Compound", "Cat"],
 "data": [
  ["O=C(N/N=C/c1ccco1)c1ccc(C(=O)N/N=C/c2ccco2)o1", "t"],
  ["COc1ccc2c(C(C)c3ccc(N)cc3)cn(C)c2c1 (stereo not given)", "f"],
  ["COc1ccc(NC(=O)CSc2nnc(Cc3ccccc3)c(=O)n2N)cc1", "f"],
  ["COc1ccc(Cn2ccc3ccc(-c4ccc5ccn(Cc6ccccc6C)c5c4)cc32)cc1", "f"],
  ["O=C(NCc1ccc(Cl)cc1)C1CCCN(c2nc3ccccc3o2)C1 (stereo not given)", "f"]
]}

With those in mind, consider the next compound.
Problem: # outcome recorded in this test, key = CC(=O)c1ccccc1NC(=O)COC(=O)C1COc2ccccc2O1 (stereo not given)
Solution: f

====

# Measured on: E3 ubiquitin-protein ligase UHRF1 (Homo sapiens) (UniProt Q96T88)
# Measurement notes: blockers of UHRF1 binding to methyl-oligo – biochemical, TR-FRET, human UHRF1, single concentration, counter-screen for MBD2 inhibitor project, primary screen (AID 687016);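 note: UHRF1 SRA domain binding a hemimethylated CpG hairpin DNA probe; 0% = median of test compound wells and 100% = reference inhibitor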
# Condition set: UHRF1 binding to methylated oligo, at 4.4 µM
Out of some 370,000 compounds screened, about 2,800 (0.76%) were called active. Cut-off read from the data, not from the text of the source: active = inhibition above about 21%; inactive = the rest. Only a selection was taken, and actives are over-represented in it overall.
Pick one and only one: True = active, False = inactive

Some entries whose results are on file:
{"columns": ["Compound", "Cat"],
 "data": [
  ["COC(=O)[C@]1(C#N)CC(=O)N(CC2CCCCC2)[C@@H]1c1ccccc1", "False"],
  ["CCCC1CCC2(CCCN2CCOC(=O)NCc2ccccc2)CC1 (centres undefined)", "False"],
  ["CC(C)c1ccc(NC2CCCN(C(=O)c3ccncc3)C2)cc1 (centres undefined)", "False"],
  ["Cc1cc(/C=N/n2cnnc2)c(C)n1-c1ccc2ncccc2c1", "False"],
  ["CCN(C(=O)COC(=O)c1cc(S(=O)(=O)N2CCc3ccccc32)ccc1OC)C1CCS(=O)(=O)C1 (centres undefined)", "False"]
]}

Problem: Fill in: this test's call for "O=C(Nc1c(-c2ccccc2)nc2c(Br)cc(Br)cn12)c1ccco1" is ___
Solution: False

Problem: Entry "O=C(CSc1nnc(COc2ccccc2)n1-c1ccc(Cl)cc1)Nc1ccc2c(c1)OCO2" : call = ?
Solution: False

Problem: Could you kindly confirm the outcome this assay logged for "CC(=O)Nc1nc2ncccn2c1-c1ccc(C(F)(F)F)cc1" ?
Solution: False
